Recorded values, source patent US20200247855A1.

# system-tested: T1, CCL8_HUMAN (human), P80075
# T1 chain: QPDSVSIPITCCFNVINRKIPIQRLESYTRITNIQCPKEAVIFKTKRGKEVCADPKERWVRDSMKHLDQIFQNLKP
# assay-remarks: fluorescence polarisation; Kd2, two-site fit
# assay-context: modification not given
experimental-readout: Kd (nM)
Give the number; nM is assumed, so skip it.

Would you kindly share the measured Kd for EDEDYEDFFKPVTAYF [P672_PEP-FITC] ?
252
